- System: HEK-293T
- Measurement protocol: Multiplex assay against HEK293T
- Assay type: toxicity, cell-based
- Reported conditions: human, 48 h, 10 µM, compound concentration 10 uM, replicate 2
// classify(record): look up Population Mitotic Cells (%) in ranges lower = under 10%, middle = from 10% up to 60%, upper = 60% and over

- Molecule: "Cl.O=c1c2cccn2c2ccccc2n1CCCN1CCC(c2ccc(Cl)cc2)CC1"
  Category label: "lower"

The entry to classify is CCCS(=O)(=O)c1nc(NC2CC2)cc(-c2ccc3c(ccn3C3CC(C)(C)NC(C)(C)C3)c2)n1 ; which class holds it? middle

Which band does CCn1c(=O)c(-c2ccc(-c3cncs3)cc2Cl)cc2cnc(Nc3ccc(N4CCN(C)CC4)cc3)nc21 fall in? upper

Category of CNc1cc(Oc2cc(C(=O)Nc3cc(N4CCN(C)CC4)cc(C(F)(F)F)c3)ccc2C)ncn1 , please. lower

====

- System: U2OS
- Measurement protocol: Multiplex assay against U2OS
- Type: toxicity, cell-based
- Reported conditions: human, 12 h, 10 µM, compound concentration 10 uM, replicate 1
# note: boundary value 50% maps to rule not met; Population Mitochondria Different-Phenotype (%) below it maps to rule met

Previously resolved entries follow.
- Compound: "Cl.Oc1ccc2c3c1O[C@H]1c4[nH]c5c(c4C[C@@]4(O)[C@@H](C2)N(CC2CC2)CC[C@]314)C[C@@]1(O)[C@H]2Cc3ccc(O)c4c3[C@@]1(CCN2CC1CC1)[C@H]5O4"
  Category label: "rule met"
- Compound: "COc1ccc(S(=O)(=O)N(CCO)c2ccccc2CN(C)C/C=C/c2ccc(Cl)cc2)cc1.O=P(O)(O)O"
  Category label: "rule met"
- Compound: "CNc1cc(Oc2cc(C(=O)Nc3cc(N4CCN(C)CC4)cc(C(F)(F)F)c3)ccc2C)ncn1"
  Category label: "rule not met"
- Compound: "CN1CCN(C(=O)C(C)(C)c2ccc(C(=O)Nc3cn4cc(-c5cc(C(C)(C)C)cc(C(C)(C)C)c5)ccc4n3)cc2)CC1 [T3-CLK-N]"
  Category label: "rule met"
- Compound: "Cc1ccc2nc(NCCN)c3ncc(C)n3c2c1.O=C(O)C(F)(F)F.O=C(O)C(F)(F)F"
  Category label: "rule met"
- Compound: "CN1CCC(=C2c3ccccc3CC(=O)c3sccc32)CC1.O=C(O)/C=C/C(=O)O [KETOTIFEN FUMARATE]"
  Category label: "rule not met"

From here, focus on the item given below.
Take the compound C=CCn1c(=O)c2cnc(Nc3ccc(N4CCN(C)CC4)cc3)nc2n1-c1cccc(C(C)(C)O)n1 [ADAVOSERTIB] and say whether its Population Mitochondria Different-Phenotype (%) is less than 50%. rule met

====

- System: U2OS
- Measurement protocol: Multiplex assay against U2OS
- Type: toxicity, cell-based
- Reported conditions: human, 12 h, 1 µM, compound concentration 1 uM, replicate 1
Threshold rule: Population Healthy Nuclei (%) greater than or equal to 80% is true (1); below that, false (0).

- Chemical smiles: "Cc1cc(C)c(S(=O)(=O)N(Cc2ccc(-c3cccc(S(C)(=O)=O)c3)cc2)Cc2ccc(C(F)(F)F)o2)c(C)c1"
  Category label: "true (1)"
- Chemical smiles: "Cc1ccc2nc(NCCN)c3ncc(C)n3c2c1.O=C(O)C(F)(F)F.O=C(O)C(F)(F)F"
  Category label: "true (1)"
- Chemical smiles: "O=C(Nc1ccc(-c2ccnc(Nc3ccc(N4CCOCC4)cc3)n2)cc1)[C@@H]1CCCN1"
  Category label: "false (0)"
- Chemical smiles: "COc1cc(N2CCN(C)CC2)ccc1Nc1ncc2c(n1)N(C)c1ccccc1C(=O)N2C"
  Category label: "false (0)"
- Chemical smiles: "CCN1CCN(Cc2ccc(Nc3ncc(F)c(-c4cc(F)c5nc(C)n(C(C)C)c5c4)n3)nc2)CC1.CS(=O)(=O)O"
  Category label: "false (0)"

Please look at the following compound next.
API: above_or_equal(metric=Population Healthy Nuclei (%), cutoff=80%) for item O=C1N/C(=N/c2ccccc2F)S/C1=C\c1ccc(C(=O)O)cc1 true (1)

====

- Tested on: U2OS
- Measurement protocol: Multiplex assay against U2OS
- Type: toxicity, cell-based
- Reported conditions: human, 12 h, 1 µM, compound concentration 1 uM, replicate 1
Criterion: Population Tubulin-Different-Phenotype (%) strictly less than 30%. Met: label 1. Not met: label 0.

In the record for Cc1ccc2nc(NCCN)c3ncc(C)n3c2c1.O=C(O)C(F)(F)F.O=C(O)C(F)(F)F , is Population Tubulin-Different-Phenotype (%) less than 30%? label 1

I wonder whether CN[C@@H]1C[C@H]2O[C@@](C)([C@@H]1OC)n1c3ccccc3c3c4c(c5c6ccccc6n2c5c31)C(=O)NC4 has Population Tubulin-Different-Phenotype (%) below 30%. Can you tell? label 0

Population Tubulin-Different-Phenotype (%) under 30%? Item: O=C(Nc1cccnn1)N1CCC(=Cc2cccc(Oc3ccc(C(F)(F)F)cn3)c2)CC1 label 1

In plain terms, does CNc1cc(Oc2cc(C(=O)Nc3cc(N4CCN(C)CC4)cc(C(F)(F)F)c3)ccc2C)ncn1 come in under 30% for Population Tubulin-Different-Phenotype (%)? label 0

Identify whether the compound S=C(NCCCc1c[nH]cn1)NCCCN(Cc1ccc(Cl)c(Cl)c1)c1ccc(Br)cn1 records Population Tubulin-Different-Phenotype (%) below 30%. label 0

Does the reported Population Tubulin-Different-Phenotype (%) of the following compound sit strictly below 30%? NC(=O)c1cccc(-c2cc(Nc3ccc(OC(F)(F)F)cc3)ncn2)c1 label 1

For CCc1cccc(CC)c1NC(=O)c1nn(C)c2c1CCc1cnc(Nc3ccc(N4CCN(C)CC4)cc3OC)nc1-2 , is the recorded Population Tubulin-Different-Phenotype (%) below the cut-off of 30%? label 0

Just wondering, is Population Tubulin-Different-Phenotype (%) of CN([C@@H](Cc1ccc(OS(=O)(=O)c2cccc3cnccc23)cc1)C(=O)N1CCN(c2ccccc2)CC1)S(=O)(=O)c1cccc2cnccc12 below 30%? label 0

====

- System: Fibroblast
- Measurement protocol: Multiplex assay against human fibroblast
- Assay type: toxicity, cell-based
- Reported conditions: 12 h, 1 µM, compound concentration 1 uM, replicate 2
Attribute measured: Population Tubulin-Different-Phenotype (%)
Hi! Could you send only the number? It should be in %, unit omitted.

Previously resolved entries follow.
- Compound: "O=C(Nc1cccnn1)N1CCC(=Cc2cccc(Oc3ccc(C(F)(F)F)cn3)c2)CC1"
  Endpoint result: 25
- Compound: "CCN1CCN(c2ccc(Nc3cc(N(C)C(=O)Nc4c(Cl)c(OC)cc(OC)c4Cl)ncn3)cc2)CC1"
  Endpoint result: 45

Measured Population Tubulin-Different-Phenotype (%), CCn1cc(-c2ccnc3[nH]c(-c4cccc(CN(C)C)c4)cc23)c(-c2ccc(NC(=O)N(C)C)cc2)n1 : 13

The compound identified as CNc1cc(Oc2cc(C(=O)Nc3cc(N4CCN(C)CC4)cc(C(F)(F)F)c3)ccc2C)ncn1 registered its Population Tubulin-Different-Phenotype (%) at 52

Looking up S=C(NCCCc1c[nH]cn1)NCCCN(Cc1ccc(Cl)c(Cl)c1)c1ccc(Br)cn1 , I see its Population Tubulin-Different-Phenotype (%) listed as 4

Value of measured Population Tubulin-Different-Phenotype (%) for the entry CCCS(=O)(=O)c1nc(NC2CC2)cc(-c2ccc3c(ccn3C3CC(C)(C)NC(C)(C)C3)c2)n1 : 29

Consider CCn1c(=O)c(-c2ccc(-c3cncs3)cc2Cl)cc2cnc(Nc3ccc(N4CCN(C)CC4)cc3)nc21 . Its measured Population Tubulin-Different-Phenotype (%) is 19

Population Tubulin-Different-Phenotype (%) measured on COc1ccc(-c2ccc3c(N4CCOCC4)nc(N4C[C@@H](C)O[C@@H](C)C4)nc3n2)cc1CO = 17

====

- Tested on: HEK-293T
- Measurement protocol: Multiplex assay against HEK293T
- Format: toxicity, cell-based
- Reported conditions: human, 48 h, 1 µM, compound concentration 1 uM, replicate 1
Please note: Population Pyknosed Nuclei (%) exactly at 30% is False. Only values below 30% get True.

Determine if CN1CCC(=C2c3ccccc3CC(=O)c3sccc32)CC1.O=C(O)/C=C/C(=O)O [KETOTIFEN FUMARATE] shows Population Pyknosed Nuclei (%) strictly lower than 30%. False

Check if Population Pyknosed Nuclei (%) falls below 30% for CCCn1c(=O)c2[nH]c(-c3cnn(Cc4cccc(C(F)(F)F)c4)c3)nc2n(CC)c1=O [GS 6201] . False

Is Population Pyknosed Nuclei (%) strictly under 30% for the entry COc1cc(N2CCN(C)CC2)ccc1Nc1ncc2c(n1)N(C)c1ccccc1C(=O)N2C ? True

# check: Population Pyknosed Nuclei (%) < 30% for CNc1cc(Oc2cc(C(=O)Nc3cc(N4CCN(C)CC4)cc(C(F)(F)F)c3)ccc2C)ncn1 False

Quick check: Population Pyknosed Nuclei (%) of Cc1cn(-c2cc(NC(=O)c3ccc(C)c(Nc4nccc(-c5cccnc5)n4)c3)cc(C(F)(F)F)c2)cn1 [NILOTINIB] under 30%? False

Consider the molecule Cl.O=c1c2cccn2c2ccccc2n1CCCN1CCC(c2ccc(Cl)cc2)CC1 . Is its Population Pyknosed Nuclei (%) strictly less than 30%? True

Consider CCc1cccc(CC)c1NC(=O)c1nn(C)c2c1CCc1cnc(Nc3ccc(C(=O)NC4CCN(C)CC4)cc3OC(F)(F)F)nc1-2 . Does its Population Pyknosed Nuclei (%) lie strictly below 30%? True

Could you please tell me whether Population Pyknosed Nuclei (%) recorded for CCOC(=O)c1c(C)[nH]c2ccc3c(c12)CN1CCc2cc(OC)ccc2C1O3 (stereo unspecified) is less than 30%? True

Regarding CCOc1cc2ncc(C#N)c(Nc3ccc(OCc4ccccn4)c(Cl)c3)c2cc1NC(=O)/C=C/CN(C)C [NERATINIB] , kindly confirm whether its Population Pyknosed Nuclei (%) is beneath 30%. False

Is 30% strictly greater than the molecule's reported Population Pyknosed Nuclei (%)? molecule: O=C(Nc1ccc(-n2nc(-c3cccnc3)cc2C(F)(F)F)cn1)c1ccc(-c2ccccc2)c(F)c1 [BI 2049] False

is_below(Population Pyknosed Nuclei (%), 30%) for O=C(Nc1ccc(-c2ccnc(Nc3ccc(N4CCOCC4)cc3)n2)cc1)[C@@H]1CCCN1 ? True

Field: below-cutoff. Rule: recorded Population Pyknosed Nuclei (%) strictly less than 30%. Subject: CCN1CCN(Cc2ccc(Nc3ncc(F)c(-c4cc(F)c5nc(C)n(C(C)C)c5c4)n3)nc2)CC1.CS(=O)(=O)O False

Does CN(C)C(=O)C(CCN1CCC(O)(c2ccc(Cl)cc2)CC1)(c1ccccc1)c1ccccc1.Cl [LOPERAMIDE HYDROCHLORIDE] have Population Pyknosed Nuclei (%) strictly under 30%? False

Report whether reported Population Pyknosed Nuclei (%) is lower than 30% (strictly) for Cl.Oc1ccc2c3c1O[C@H]1c4[nH]c5c(c4C[C@@]4(O)[C@@H](C2)N(CC2CC2)CC[C@]314)C[C@@]1(O)[C@H]2Cc3ccc(O)c4c3[C@@]1(CCN2CC1CC1)[C@H]5O4 False

In the record for CCCS(=O)(=O)c1nc(NC2CC2)cc(-c2ccc3c(ccn3C3CC(C)(C)NC(C)(C)C3)c2)n1 , is Population Pyknosed Nuclei (%) less than 30%? False
